Where do the numbers come from? From ChEMBL document CHEMBL3507680.

Let's look at some compounds and their measured cytotoxicity at 70.5 h.
- Test name: Human HepG2 cell viability assay in 384 well format
- Assay type: toxicity, cell-based
- Design: dose 125 nL, time 70.5 hour; concentration not given beside the values
- Test settings: HepG2 cells, read-out: Inhibition
# value in %; strip the unit string

> print(dat)
                                   compound  reported
1  CCNC(c1ccc(CC)cc1)c1cccnc1 (configuration not stated)      7.31
2  Cc1ccc(CN2CC3(CCN(C(=O)Cc4ccc(Cl)cc4)C3)C2)o1     -5.73
3      CCn1nc2c(cc1=O)CN(Cc1nc(CCOC)no1)CC2       -16

input: Which cytotoxicity at 70.5 h reading was recorded for the compound `COCCC(=O)Nc1cnn(COc2ccc(F)cc2Cl)c1` ?
output: 27.4

input: // cytotoxicity at 70.5 h lookup, key: `CC(C)CCN(CCC(C)C)Cc1nc2c(cnn2C)c(=O)[nH]1`
output: 2.1

input: Which value of cytotoxicity at 70.5 h has been reported for O=C(NCC1CCOC1)c1csc(-c2ccc(F)cc2)n1 (configuration not stated) in the records?
output: -6.03

input: # get_value(readout='cytotoxicity at 70.5 h', item= `FCCOc1cccc(NCc2c[nH]nc2-c2cccnc2)c1` )
output: -3.33

input: Recorded cytotoxicity at 70.5 h of `c1cc(CN2CCOC3(CCCC3)C2)no1` , please.
output: -2.72

input: Give the measured cytotoxicity at 70.5 h of CCC(C)NC(=O)c1nnn(-c2cccc3c2CCN(C)C3)c1C (configuration not stated) .
output: 2.37

* * *

- Test name: Human HepG2 cell viability assay in 384 well format
- Assay type: toxicity, cell-based
- Design: dose 125 nL, time 70.5 hour; concentration not given beside the values
- Test settings: HepG2 cells, read-out: Inhibition
Measurement type: cytotoxicity at 70.5 h (%)
Value expressed in %; do not type the unit.

> print(dat)
                                   compound  quantity.unit  reported
1     CCOc1ncnc2c1CCN(S(=O)(=O)c1ccccc1)CC2              %     -14.4
2  CN1CC2(CCNCC2)CC1C(=O)NCCCNc1cccnc1 (stereo not drawn)              %      17.1
3                COC1CCN(C(=O)CCn2cccn2)CC1              %     -8.03

input: If you can, please state the reported cytotoxicity at 70.5 h value of `CC[C@H]1COCCN1C(=O)c1ccc(OC)c(N2CCOCC2)c1` .
output: -10.3

input: Reported cytotoxicity at 70.5 h, compound `NC(=O)C1CCN(C(=O)c2cc(S(=O)(=O)N3CCCCC3)cs2)CC1` : ____
output: 14.2

* * *

- Test name: Human HepG2 cell viability assay in 384 well format
- Type: toxicity, cell-based
- Design: dose 125 nL, time 70.5 hour; concentration not given beside the values
- Test settings: HepG2 cells, read-out: Inhibition
Attribute: cytotoxicity at 70.5 h
Provide only the numeric value, understood in %.

> print(dat)
                                   molecule  reported
1   O=C(NCc1ccco1)c1cc(N2CC[C@@H](O)C2)ccn1      30.9
2  Cc1cccc(CO[C@@H]2CC[C@H]3[C@H]2OCCN3Cc2ccoc2)n1     -11.3
3      Cc1c(NCC(C)(C)C)cccc1C(=O)NCc1ncnn1C      14.6
4  CCc1cc(NC(=O)C2CCCN(C(=O)c3ccncc3)C2)[nH]n1 (configuration not stated)     -10.6
5  N#Cc1ccc(S(=O)(=O)NC(=O)COc2ccc3c(c2)CCC3)cc1     -1.54
6     CCc1nnc2n1CCN(C(=O)c1ccnc(N(C)C)c1)C2     -2.04
7  Cc1ccc(N2CCCC(N(C)Cc3cc(C)no3)C2)nn1 (configuration not stated)      -2.5
8  CCOc1ccc(N(CC(=O)c2ccccc2)C2=NCCCCC2)cc1     -9.89

Please find the next molecule below.
input: Data request, read-out cytotoxicity at 70.5 h, for CN1CCOC(CNCc2coc(-c3ccccc3Cl)n2)C1 (configuration not stated)
output: 1.39
